As shown below, each of these substances has a reported IC50 value.
# experimental.target: Human VPAC1 Receptor (Homo sapiens)
# Construct: expressed in transfected cells
# Sequence (P32241 31-457): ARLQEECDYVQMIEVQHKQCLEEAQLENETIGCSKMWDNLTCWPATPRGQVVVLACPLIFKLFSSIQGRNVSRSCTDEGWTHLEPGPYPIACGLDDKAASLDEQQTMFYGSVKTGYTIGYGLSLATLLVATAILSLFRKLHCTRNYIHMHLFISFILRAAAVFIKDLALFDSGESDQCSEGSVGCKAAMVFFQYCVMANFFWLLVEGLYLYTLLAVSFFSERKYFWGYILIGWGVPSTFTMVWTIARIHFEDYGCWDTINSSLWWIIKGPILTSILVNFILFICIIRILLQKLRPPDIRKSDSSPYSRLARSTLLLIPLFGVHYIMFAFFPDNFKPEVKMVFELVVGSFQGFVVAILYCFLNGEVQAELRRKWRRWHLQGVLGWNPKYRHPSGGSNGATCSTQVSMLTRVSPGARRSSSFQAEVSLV
# protocol.summary: Filter binding assay, 125I-labeled VIP, membranes of cells transiently transfected with human VPAC1
# condition.set: 125I-labeled VIP tracer
# Description: For this assay, the solutions and equipment include: Presoak solution: 0.5% Polyethyleneamine in Aqua dest Buffer for flushing filter plates: 25 mM HEPES pH 7.4 Blocking buffer: 25 mM HEPES pH 7.4; 0.2% protease free BSA Assay buffer: 25 mM HEPES pH 7.4; 0.5% protease free BSA Dilution and assay plate: PS-Microplate, U form Filtration Plate Multiscreen FB Opaque Plate; […] Type B Glasfiber filter In order to prepare the filter plates, the presoak solution is aspirated by vacuum filtration. […]

substance	IC50
C6-HSDAVFTEQY(OMe)TOrnLRAibQLAAbuAibOrnY(OMe)LQAibIOrnOrnGGPSSGAPPPC(PEG20K)C(PEG20K)-NH2 (HSDAVFTEQYTXLRXQLAXXXYLQXIXXGGPSSGAPPPCC; C6 acyl, non-natural residues, two PEG20K, C-terminal amide; Synthetic sequence PEGylated VPAC2 receptor agonist) [Agonist P574]	> 25000 nM
C6-HSDAVFTEQY(OMe)TOrnLRAibQLAAbuAibOrnYLQAibIOrnC(PEG40K)OrnGGPSSGAPPPS-NH2 (HSDAVFTEQYTXLRXQLAXXXYLQXIXCXGGPSSGAPPPS; C6 acyl, PEG40K on Cys, C-terminal amide; Synthetic sequence PEGylated VPAC2 receptor agonist) [Agonist P537]	> 25000 nM
C6-HSDAVFTEQY(OMe)TOrnLRAibQLAAbuAibOrnYLQAibIOrnOrnC(PEG20K)GGPSSGAPPPC(PEG20K)-NH2 (HSDAVFTEQYTXLRXQLAXXXYLQXIXXCGGPSSGAPPPC; C6 acyl, non-natural residues, two PEG20K, C-terminal amide; Synthetic sequence PEGylated VPAC2 receptor agonist) [Agonist P580]	> 25000 nM
